tested on: L1210; assay: Ability to inhibit L1210 murine leukemia tumor cell growth in culture after 48 hr of its exposure.; assay type: functional, cell-based; settings: Mus musculus, L1210, 48 h
I'd appreciate it if you could supply pIC50 values for the items below.
Give bare numbers, as −log10 of the molar value.

Some solved cases for reference:
C=C(CC(NC(=O)c1ccc(N(C)Cc2cnc3nc(N)nc(N)c3n2)cc1)C(=O)O)C(=O)O (stereo not drawn)	6.06
C=C(CC(NC(=O)c1ccc(NCc2cnc3nc(N)nc(N)c3n2)cc1)C(=O)O)C(=O)O (stereo not drawn)	7.54

Prompt: // pIC50 lookup, key: CN(Cc1cnc2nc(N)nc(N)c2n1)c1ccc(C(=O)NC(CC(C#N)C(=O)O)C(=O)O)cc1 (stereo not drawn)
Response: 7.74
